// GI50 lookup, one value per entry
- System: DU-145
- experimental.protocol: NCI tumour cell line growth inhibition, 48 h
Active and inactive are the calls of the source. Rule as the data show it: active = GI50 up to about 1.1 µM and inactive = higher.

| compound | GI50 |
| --- | --- |
| CCOC(=O)C(NC(=O)CC(C)C)(Nc1ccc(S(=O)(=O)Nc2nc(C)cc(C)n2)cc1)C(F)(F)F (stereo unspecified) | > 100 µM (inactive) |
| Cc1cc2c(cc1Cl)Sc1nnc(C)n1S2(=O)=O | 22 µM (inactive) |
| COc1cc(Br)cc2nc(-c3cccs3)oc12 | > 100 µM (inactive) |
| NCCCN1CCN(CCCNc2ccc3ncn4c5ccccc5c(=O)c2c34)CC1 | 1.46 µM (inactive) |
| CC1=CCC[C@H]2[C@](C)(CC3=CC(=O)C(SCC(C)C)=CC3=O)[C@@H](C)CC[C@]12C | 14.7 µM (inactive) |
| COC(=O)C1(O)c2ccccc2N=C2C(=O)c3ccccc3N21 (stereo unspecified) | > 100 µM (inactive) |
| CC(=O)NNc1nc(C)c(C(/C=C/c2ccccc2O)=N/NC(=O)c2ccncc2)s1 | > 100 µM (inactive) |
| CCOC(=O)c1c(C)n(-c2ccc(Cl)cc2)c2c1cc(O)c1[nH]c3c(c12)CCCC3 | > 100 µM (inactive) |
| COC1=N[C@H](C(C)C)C(OC)=N[C@H]1Cc1ccc(C[C@@H]2N=C(OC)[C@@H](C(C)C)N=C2OC)s1 | 33.2 µM (inactive) |
| CC/C(C)=C1\OC(=O)C(C)C(O)C(Cc2cccnc2)NC(=O)C(NC(=O)c2ncccc2O)C(C)OC1=O (stereo unspecified) | > 100 µM (inactive) |
| O=c1[nH]nc(Cc2ccccc2)n1-n1cnnc1 | > 100 µM (inactive) |
| Cc1cccc2c(N)c3cccc(C(=O)NCC[N+](C)(C)Cc4ccc([N+](=O)[O-])s4)c3nc12 | 9.1 µM (inactive) |
| CC(=O)Nc1sccc1S(=O)(=O)c1ccc(Cl)cc1 | > 100 µM (inactive) |
| O=c1c2nn[nH]c2nc2n1CC(c1ccccc1)S2 (stereo unspecified) | > 100 µM (inactive) |
| NS(=O)(=O)c1ccc(NCc2cccc3c(=O)c4ccc(Cl)cc4oc23)cc1 | 30.3 µM (inactive) |
| COCCOCCOCCC(=O)NC1CC2CCC1(C)C2(C)C (stereo unspecified) | > 100 µM (inactive) |
| CC(=O)CCn1c(=S)sc2ccccc21 | > 100 µM (inactive) |
| O=C(CCCN1CCC2(CC1)NC(=O)c1ccccc1O2)c1ccc(F)cc1 | > 100 µM (inactive) |
| O=C(O)c1ccc(Nc2nc3ccccc3nc2C(=O)O)cc1 | > 100 µM (inactive) |
| COc1ccccc1[S+]([O-])Nc1ccccc1 (stereo unspecified) | > 100 µM (inactive) |
| Cn1ccnc1Sc1ccc(/C=N/NC(=O)c2ccccc2O)cc1[N+](=O)[O-] | > 100 µM (inactive) |
